assay: Hemolytic activity in human erythrocytes at 1 mg/ml; type: ADME, cell-based, Erythrocyte; conditions: read-out: Activity
*1 amine or outer side, *2 acyl side, *3 side chain or, on linkers, in order; H or OH if unused. Where a SMILES comes first, the peptide text is derived from it. Bridges are numbered along the chain shown (N, C = ends). [ ]: non-standard residue; d: D form. The star is where a group is joined. ξ: configuration not given here. hTyr(3S-OH,4S-OH,3'-OSO3H) = N[C@H](C(=O)O)[C@H](O)[C@@H](O)c1ccc(O)c(OS(=O)(=O)O)c1; Orn(4R-OH,5R-OH) = O=C([C@H](C[C@@H](O)[C@@H](O)N[*:3])N[*:1])[*:2]; Pro(3S-OH,4S-Me) = C[C@H]1CN[C@H](C(=O)O)[C@H]1O; X1 = CCCCCCOc1ccc(N2CCN(c3ccc(C(=O)*)cc3)CC2)cc1; X5 = CCCCCOc1ccc(-c2cc(-c3ccc(C(=O)*)cc3)on2)cc1; X8 = CCCCCOc1ccc(-c2nc(-c3ccc(C(=O)*)cc3)cs2)cc1; Gln(3R-OH) = NC(=O)C[C@@H](O)[C@H](N)C(=O)O; Hyp = O=C(O)[C@@H]1C[C@@H](O)CN1; ξThr(3R) = C[C@@H](O)C(N)C(=O)O
MEASURED PROPERTY: hemolysis at 1 mg/ml

MOLECULE	MEASURED PROPERTY	OBSERVED MEASUREMENT
CCCCCOc1ccc(-c2cc(-c3ccc(C(=O)N[C@H]4C[C@@H](O)[C@@H](O)NC(=O)[C@@H]5[C@@H](O)[C@@H](C)CN5C(=O)[C@H]([C@H](O)CC(N)=O)NC(=O)[C@H]([C@H](O)[C@@H](O)c5ccc(O)c(OS(=O)(=O)[O-])c5)NC(=O)[C@@H]5C[C@@H](O)CN5C(=O)C([C@@H](C)O)NC4=O)cc3)on2)cc1.[Na+] (stereo partly drawn) (X5-[Orn(4R-OH,5R-OH)][ξThr(3R)][Hyp][hTyr(3S-OH,4S-OH,3'-OSO3H)][Gln(3R-OH)][Pro(3S-OH,4S-Me)]; lactam 1-C)	hemolysis at 1 mg/ml	38%
CCCCCOc1ccc(-c2nc(-c3ccc(C(=O)N[C@H]4C[C@@H](O)[C@@H](O)NC(=O)[C@@H]5[C@@H](O)[C@@H](C)CN5C(=O)[C@H]([C@H](O)CC(N)=O)NC(=O)[C@H]([C@H](O)[C@@H](O)c5ccc(O)c(OS(=O)(=O)[O-])c5)NC(=O)[C@@H]5C[C@@H](O)CN5C(=O)C([C@@H](C)O)NC4=O)cc3)cs2)cc1.[Na+] (stereo partly drawn) (X8-[Orn(4R-OH,5R-OH)][ξThr(3R)][Hyp][hTyr(3S-OH,4S-OH,3'-OSO3H)][Gln(3R-OH)][Pro(3S-OH,4S-Me)]; lactam 1-C)	hemolysis at 1 mg/ml	< 20%
CCCCCCOc1ccc(N2CCN(c3ccc(C(=O)N[C@H]4C[C@@H](O)[C@@H](O)NC(=O)[C@@H]5[C@@H](O)[C@@H](C)CN5C(=O)[C@H]([C@H](O)CC(N)=O)NC(=O)[C@H]([C@H](O)[C@@H](O)c5ccc(O)c(OS(=O)(=O)[O-])c5)NC(=O)[C@@H]5C[C@@H](O)CN5C(=O)C([C@@H](C)O)NC4=O)cc3)CC2)cc1.[Na+] (stereo partly drawn) (X1-[Orn(4R-OH,5R-OH)][ξThr(3R)][Hyp][hTyr(3S-OH,4S-OH,3'-OSO3H)][Gln(3R-OH)][Pro(3S-OH,4S-Me)]; lactam 1-C)	hemolysis at 1 mg/ml	< 20%

---

assay: Half life in mouse at 5 mg/kg, iv after 30 mins; format: ADME, organism-based; parameters: dose 5 mg/kg, route intravenous; conditions: in vivo
*1 amine or outer side, *2 acyl side, *3 side chain or, on linkers, in order; H or OH if unused. Where a SMILES comes first, the peptide text is derived from it. Bridges are numbered along the chain shown (N, C = ends). [ ]: non-standard residue; d: D form. The star is where a group is joined. ξ: configuration not given here. hTyr(3S-OH,4S-OH,3'-OSO3H) = N[C@H](C(=O)O)[C@H](O)[C@@H](O)c1ccc(O)c(OS(=O)(=O)O)c1; Orn(4R-OH,5R-OH) = O=C([C@H](C[C@@H](O)[C@@H](O)N[*:3])N[*:1])[*:2]; Pro(3S-OH,4S-Me) = C[C@H]1CN[C@H](C(=O)O)[C@H]1O; X1 = CCCCCCOc1ccc(N2CCN(c3ccc(C(=O)*)cc3)CC2)cc1; X2 = CCCCCOc1ccc(-c2cc(-c3ccc(C(=O)*)cc3)no2)cc1; Gln(3R-OH) = NC(=O)C[C@@H](O)[C@H](N)C(=O)O; Hyp = O=C(O)[C@@H]1C[C@@H](O)CN1; ξThr(3R) = C[C@@H](O)C(N)C(=O)O
Catalogue of half-life readings, one per entry.
MEASURED PROPERTY: half-life (h)

MOLECULE	OBSERVED MEASUREMENT
CCCCCOc1ccc(-c2cc(-c3ccc(C(=O)N[C@H]4C[C@@H](O)[C@@H](O)NC(=O)[C@@H]5[C@@H](O)[C@@H](C)CN5C(=O)[C@H]([C@H](O)CC(N)=O)NC(=O)[C@H]([C@H](O)[C@@H](O)c5ccc(O)c(OS(=O)(=O)[O-])c5)NC(=O)[C@@H]5C[C@@H](O)CN5C(=O)C([C@@H](C)O)NC4=O)cc3)no2)cc1.[Na+] (stereo partly drawn) (X2-[Orn(4R-OH,5R-OH)][ξThr(3R)][Hyp][hTyr(3S-OH,4S-OH,3'-OSO3H)][Gln(3R-OH)][Pro(3S-OH,4S-Me)]; lactam 1-C)	5.1
CCCCCCOc1ccc(N2CCN(c3ccc(C(=O)N[C@H]4C[C@@H](O)[C@@H](O)NC(=O)[C@@H]5[C@@H](O)[C@@H](C)CN5C(=O)[C@H]([C@H](O)CC(N)=O)NC(=O)[C@H]([C@H](O)[C@@H](O)c5ccc(O)c(OS(=O)(=O)[O-])c5)NC(=O)[C@@H]5C[C@@H](O)CN5C(=O)C([C@@H](C)O)NC4=O)cc3)CC2)cc1.[Na+] (stereo partly drawn) (X1-[Orn(4R-OH,5R-OH)][ξThr(3R)][Hyp][hTyr(3S-OH,4S-OH,3'-OSO3H)][Gln(3R-OH)][Pro(3S-OH,4S-Me)]; lactam 1-C)	3.5

---

test system: Aspergillus fumigatus; assay: Antifungal activity against Aspergillus fumigatus FP1305 in mouse serum; type: functional
*1 amine or outer side, *2 acyl side, *3 side chain or, on linkers, in order; H or OH if unused. Where a SMILES comes first, the peptide text is derived from it. Bridges are numbered along the chain shown (N, C = ends). [ ]: non-standard residue; d: D form. The star is where a group is joined. ξ: configuration not given here. hTyr(3S-OH,4S-OH,3'-OSO3H) = N[C@H](C(=O)O)[C@H](O)[C@@H](O)c1ccc(O)c(OS(=O)(=O)O)c1; Orn(4R-OH,5R-OH) = O=C([C@H](C[C@@H](O)[C@@H](O)N[*:3])N[*:1])[*:2]; Orn(4R-OH,5S-OH) = O=C([C@H](C[C@@H](O)[C@H](O)N[*:3])N[*:1])[*:2]; X4 = CCCCCCOc1ccc(-c2nnc(-c3ccc(C(=O)*)cc3)s2)cc1; X6 = CCCCCCCOc1ccc(N2CCN(c3ccc(C(=O)*)cn3)CC2)cc1; Pro(3S-OH,4S-Me) = C[C@H]1CN[C@H](C(=O)O)[C@H]1O; X1 = CCCCCCOc1ccc(N2CCN(c3ccc(C(=O)*)cc3)CC2)cc1; X2 = CCCCCOc1ccc(-c2cc(-c3ccc(C(=O)*)cc3)no2)cc1; X3 = CCCCOc1ccc(-c2ccc(-c3ccc(C(=O)*)cc3)cc2)cc1; X5 = CCCCCOc1ccc(-c2cc(-c3ccc(C(=O)*)cc3)on2)cc1; X7 = CCCCCCOc1ccc(C2CCN(c3ccc(C(=O)*)cc3)CC2)cc1; X8 = CCCCCOc1ccc(-c2nc(-c3ccc(C(=O)*)cc3)cs2)cc1; Benzoyl(4-octyloxy) = CCCCCCCCOc1ccc(C(=O)*)cc1; Gln(3R-OH) = NC(=O)C[C@@H](O)[C@H](N)C(=O)O; Hyp = O=C(O)[C@@H]1C[C@@H](O)CN1; ξThr(3R) = C[C@@H](O)C(N)C(=O)O

COMPOUND	MEASURE UNIT	MIC
CCCCCOc1ccc(-c2cc(-c3ccc(C(=O)N[C@H]4C[C@@H](O)[C@@H](O)NC(=O)[C@@H]5[C@@H](O)[C@@H](C)CN5C(=O)[C@H]([C@H](O)CC(N)=O)NC(=O)[C@H]([C@H](O)[C@@H](O)c5ccc(O)c(OS(=O)(=O)[O-])c5)NC(=O)[C@@H]5C[C@@H](O)CN5C(=O)C([C@@H](C)O)NC4=O)cc3)on2)cc1.[Na+] (stereo partly drawn) (X5-[Orn(4R-OH,5R-OH)][ξThr(3R)][Hyp][hTyr(3S-OH,4S-OH,3'-OSO3H)][Gln(3R-OH)][Pro(3S-OH,4S-Me)]; lactam 1-C)	µg/mL	0.78
CCCCOc1ccc(-c2ccc(-c3ccc(C(=O)N[C@H]4C[C@@H](O)[C@@H](O)NC(=O)[C@@H]5[C@@H](O)[C@@H](C)CN5C(=O)[C@H]([C@H](O)CC(N)=O)NC(=O)[C@H]([C@H](O)[C@@H](O)c5ccc(O)c(OS(=O)(=O)[O-])c5)NC(=O)[C@@H]5C[C@@H](O)CN5C(=O)[C@H]([C@@H](C)O)NC4=O)cc3)cc2)cc1.[Na+] (X3-[Orn(4R-OH,5R-OH)]T[Hyp][hTyr(3S-OH,4S-OH,3'-OSO3H)][Gln(3R-OH)][Pro(3S-OH,4S-Me)]; lactam 1-C)	µg/mL	1.56
CCCCCOc1ccc(-c2nc(-c3ccc(C(=O)N[C@H]4C[C@@H](O)[C@@H](O)NC(=O)[C@@H]5[C@@H](O)[C@@H](C)CN5C(=O)[C@H]([C@H](O)CC(N)=O)NC(=O)[C@H]([C@H](O)[C@@H](O)c5ccc(O)c(OS(=O)(=O)[O-])c5)NC(=O)[C@@H]5C[C@@H](O)CN5C(=O)C([C@@H](C)O)NC4=O)cc3)cs2)cc1.[Na+] (stereo partly drawn) (X8-[Orn(4R-OH,5R-OH)][ξThr(3R)][Hyp][hTyr(3S-OH,4S-OH,3'-OSO3H)][Gln(3R-OH)][Pro(3S-OH,4S-Me)]; lactam 1-C)	µg/mL	3.13
CCCCCCCOc1ccc(N2CCN(c3ccc(C(=O)N[C@H]4C[C@@H](O)[C@@H](O)NC(=O)[C@@H]5[C@@H](O)[C@@H](C)CN5C(=O)[C@H]([C@H](O)CC(N)=O)NC(=O)[C@H]([C@H](O)[C@@H](O)c5ccc(O)c(OS(=O)(=O)[O-])c5)NC(=O)[C@@H]5C[C@@H](O)CN5C(=O)C([C@@H](C)O)NC4=O)cn3)CC2)cc1.[Na+] (stereo partly drawn) (X6-[Orn(4R-OH,5R-OH)][ξThr(3R)][Hyp][hTyr(3S-OH,4S-OH,3'-OSO3H)][Gln(3R-OH)][Pro(3S-OH,4S-Me)]; lactam 1-C)	µg/mL	6.25
CCCCCCOc1ccc(N2CCN(c3ccc(C(=O)N[C@H]4C[C@@H](O)[C@@H](O)NC(=O)[C@@H]5[C@@H](O)[C@@H](C)CN5C(=O)[C@H]([C@H](O)CC(N)=O)NC(=O)[C@H]([C@H](O)[C@@H](O)c5ccc(O)c(OS(=O)(=O)[O-])c5)NC(=O)[C@@H]5C[C@@H](O)CN5C(=O)C([C@@H](C)O)NC4=O)cc3)CC2)cc1.[Na+] (stereo partly drawn) (X1-[Orn(4R-OH,5R-OH)][ξThr(3R)][Hyp][hTyr(3S-OH,4S-OH,3'-OSO3H)][Gln(3R-OH)][Pro(3S-OH,4S-Me)]; lactam 1-C)	µg/mL	1.56
CCCCCCOc1ccc(C2CCN(c3ccc(C(=O)N[C@H]4C[C@@H](O)[C@@H](O)NC(=O)[C@@H]5[C@@H](O)[C@@H](C)CN5C(=O)[C@H]([C@H](O)CC(N)=O)NC(=O)[C@H]([C@H](O)[C@@H](O)c5ccc(O)c(OS(=O)(=O)[O-])c5)NC(=O)[C@@H]5C[C@@H](O)CN5C(=O)C([C@@H](C)O)NC4=O)cc3)CC2)cc1.[Na+] (stereo partly drawn) (X7-[Orn(4R-OH,5R-OH)][ξThr(3R)][Hyp][hTyr(3S-OH,4S-OH,3'-OSO3H)][Gln(3R-OH)][Pro(3S-OH,4S-Me)]; lactam 1-C)	µg/mL	1.56
CCCCCCCCOc1ccc(C(=O)N[C@H]2C[C@@H](O)[C@H](O)NC(=O)[C@@H]3[C@@H](O)[C@@H](C)CN3C(=O)[C@H]([C@H](O)CC(N)=O)NC(=O)[C@H]([C@H](O)[C@@H](O)c3ccc(O)c(OS(=O)(=O)[O-])c3)NC(=O)[C@@H]3C[C@@H](O)CN3C(=O)[C@H]([C@@H](C)O)NC2=O)cc1.[Na+] [FR-131535] ({Benzoyl(4-octyloxy)}-[Orn(4R-OH,5S-OH)]T[Hyp][hTyr(3S-OH,4S-OH,3'-OSO3H)][Gln(3R-OH)][Pro(3S-OH,4S-Me)]; lactam 1-C)	µg/mL	12.5
CCCCCCOc1ccc(-c2nnc(-c3ccc(C(=O)N[C@H]4C[C@@H](O)[C@@H](O)NC(=O)[C@@H]5[C@@H](O)[C@@H](C)CN5C(=O)[C@H]([C@H](O)CC(N)=O)NC(=O)[C@H]([C@H](O)[C@@H](O)c5ccc(O)c(OS(=O)(=O)[O-])c5)NC(=O)[C@@H]5C[C@@H](O)CN5C(=O)C([C@@H](C)O)NC4=O)cc3)s2)cc1.[Na+] (stereo partly drawn) (X4-[Orn(4R-OH,5R-OH)][ξThr(3R)][Hyp][hTyr(3S-OH,4S-OH,3'-OSO3H)][Gln(3R-OH)][Pro(3S-OH,4S-Me)]; lactam 1-C)	µg/mL	0.78
CCCCCOc1ccc(-c2cc(-c3ccc(C(=O)N[C@H]4C[C@@H](O)[C@@H](O)NC(=O)[C@@H]5[C@@H](O)[C@@H](C)CN5C(=O)[C@H]([C@H](O)CC(N)=O)NC(=O)[C@H]([C@H](O)[C@@H](O)c5ccc(O)c(OS(=O)(=O)[O-])c5)NC(=O)[C@@H]5C[C@@H](O)CN5C(=O)C([C@@H](C)O)NC4=O)cc3)no2)cc1.[Na+] (stereo partly drawn) (X2-[Orn(4R-OH,5R-OH)][ξThr(3R)][Hyp][hTyr(3S-OH,4S-OH,3'-OSO3H)][Gln(3R-OH)][Pro(3S-OH,4S-Me)]; lactam 1-C)	µg/mL	1.56
